- targetOfAssay: FGFR1 V561M (Homo sapiens, UniProt P11362, V561M)
- Construct: purchased Signalchem F04-13G
- Sequence (P11362 22-822 V561M): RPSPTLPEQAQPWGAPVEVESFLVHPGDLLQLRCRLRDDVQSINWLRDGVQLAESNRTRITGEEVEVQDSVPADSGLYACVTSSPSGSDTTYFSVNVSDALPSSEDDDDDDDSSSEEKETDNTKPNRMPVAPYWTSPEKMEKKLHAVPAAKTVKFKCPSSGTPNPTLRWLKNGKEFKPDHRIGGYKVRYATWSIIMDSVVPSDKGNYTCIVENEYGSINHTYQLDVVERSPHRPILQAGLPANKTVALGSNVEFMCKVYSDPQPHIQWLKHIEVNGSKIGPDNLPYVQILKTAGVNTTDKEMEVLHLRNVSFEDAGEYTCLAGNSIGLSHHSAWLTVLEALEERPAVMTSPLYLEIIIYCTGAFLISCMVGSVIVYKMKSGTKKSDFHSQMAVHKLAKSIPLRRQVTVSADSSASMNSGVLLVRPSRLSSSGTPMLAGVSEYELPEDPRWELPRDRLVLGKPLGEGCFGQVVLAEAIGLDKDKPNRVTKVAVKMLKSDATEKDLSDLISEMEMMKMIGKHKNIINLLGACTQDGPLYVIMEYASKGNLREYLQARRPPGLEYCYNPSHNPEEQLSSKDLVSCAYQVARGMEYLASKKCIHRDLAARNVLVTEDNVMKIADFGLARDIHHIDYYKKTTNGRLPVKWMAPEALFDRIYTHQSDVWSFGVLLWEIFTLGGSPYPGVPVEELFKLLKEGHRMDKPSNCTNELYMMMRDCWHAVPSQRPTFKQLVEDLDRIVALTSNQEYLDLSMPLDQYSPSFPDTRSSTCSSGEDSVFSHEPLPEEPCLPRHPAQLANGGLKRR
- assayText: Assay III: inhibitory activity against FGFR mutants (method of Assay I, different operator)
- Assay type: biochemical
- testParameters: Table 3; same method as Assay I, different experimental operator
measuredMetric: IC50 (nM)

Below are worked cases with known answers.
>  <compound>
CC(Oc1ccc2[nH]nc(C(=O)Nc3cnn(CC(=O)N4CCCC4)c3)c2c1)c1c(Cl)cncc1Cl (stereo not shown) [Compound 23]

>  <IC50 / nM>
2.2

$$$$
>  <compound>
CC(Oc1ccc2[nH]nc(C(=O)Nc3cnn(C4CCC4)c3)c2c1)c1c(Cl)cncc1Cl (stereo not shown) [Compound 27]

>  <IC50 / nM>
20

$$$$

[I] C[C@@H](O)Cn1cc(NC(=O)c2n[nH]c3ccc(O[C@H](C)c4c(Cl)cncc4Cl)cc23)cn1 [Compound 33]
[II] C[C@@H](Oc1ccc2[nH]nc(C(=O)Nc3cnn(CC4CCCCN4C)c3)c2c1)c1c(Cl)cncc1Cl (stereo partly shown) [Compound 45]
Prompt: IC50 comparison. Which is larger, I or II ? Field: selected label. Fill in the label of the entry you choose.
Response: I
(I: 1 nM, II: 0.34 nM)
